- Experimental system: UniProt O75116
- Sequence (O75116 whole entry): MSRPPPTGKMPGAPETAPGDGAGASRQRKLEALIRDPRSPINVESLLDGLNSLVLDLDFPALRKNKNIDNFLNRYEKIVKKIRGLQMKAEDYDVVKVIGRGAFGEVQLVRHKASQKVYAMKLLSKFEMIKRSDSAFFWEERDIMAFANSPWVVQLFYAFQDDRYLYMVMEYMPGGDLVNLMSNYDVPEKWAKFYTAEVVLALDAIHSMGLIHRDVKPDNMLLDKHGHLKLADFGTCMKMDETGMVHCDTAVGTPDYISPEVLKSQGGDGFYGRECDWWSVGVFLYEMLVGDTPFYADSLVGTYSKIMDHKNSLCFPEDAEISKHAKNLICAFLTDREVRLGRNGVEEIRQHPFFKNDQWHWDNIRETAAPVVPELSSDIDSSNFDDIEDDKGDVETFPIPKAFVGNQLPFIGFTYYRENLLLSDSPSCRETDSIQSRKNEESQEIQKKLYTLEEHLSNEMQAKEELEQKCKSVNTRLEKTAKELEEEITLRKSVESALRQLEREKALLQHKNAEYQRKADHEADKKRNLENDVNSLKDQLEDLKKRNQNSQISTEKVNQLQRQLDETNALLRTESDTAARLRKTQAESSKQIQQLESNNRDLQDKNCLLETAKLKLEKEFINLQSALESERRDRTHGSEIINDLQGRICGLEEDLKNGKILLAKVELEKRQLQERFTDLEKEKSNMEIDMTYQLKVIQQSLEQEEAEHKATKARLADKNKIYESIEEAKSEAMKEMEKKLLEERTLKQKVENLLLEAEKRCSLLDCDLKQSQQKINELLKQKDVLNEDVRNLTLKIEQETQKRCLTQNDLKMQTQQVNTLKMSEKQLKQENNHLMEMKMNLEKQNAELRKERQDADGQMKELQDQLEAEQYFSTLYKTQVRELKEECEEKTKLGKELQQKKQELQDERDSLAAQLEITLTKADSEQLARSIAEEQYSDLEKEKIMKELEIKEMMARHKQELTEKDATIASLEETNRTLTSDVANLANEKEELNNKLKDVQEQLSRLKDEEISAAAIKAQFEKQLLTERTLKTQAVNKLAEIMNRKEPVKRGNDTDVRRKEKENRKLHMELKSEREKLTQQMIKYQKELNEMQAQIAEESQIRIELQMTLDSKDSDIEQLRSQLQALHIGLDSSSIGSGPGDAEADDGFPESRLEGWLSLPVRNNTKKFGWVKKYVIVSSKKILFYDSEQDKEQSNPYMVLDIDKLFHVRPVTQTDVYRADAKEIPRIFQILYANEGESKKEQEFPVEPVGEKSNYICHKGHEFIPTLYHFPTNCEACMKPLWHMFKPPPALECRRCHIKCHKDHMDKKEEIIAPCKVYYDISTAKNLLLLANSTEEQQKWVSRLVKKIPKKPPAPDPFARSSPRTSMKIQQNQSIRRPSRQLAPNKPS
- Assay summary: Degradation inducing activity of ROCK2 protein in HUVEC cells, Western blotting (Simple Western JESS)
- Assay type: cell-based
- Design: endogenous in cells; host or cells: HUVEC (ATCC CRL-1730)
- Details: HUVEC, 24 h, degradation rate at 1 µM
Recorded endpoint: inhibition at 1 µM

Q: Quick one: inhibition at 1 µM for `COC[C@H]1CN[C@H](C)CN1CC(=O)N1CC(C)(C)c2ncc(Cc3cccc(OCCOCCOCCOCCOCCOCCOCCOCCN[C@H](Cc4cccc(F)c4)C(=O)Nc4ccc(-c5ccncc5)cc4)c3)cc21` ?
Ans: 50 to 75%

Q: Continue with `COC[C@H]1CN[C@H](C)CN1CC(=O)N1CC(C)(C)c2nc(CN(C)CCOCCN[C@H](C)c3ccc(C(=O)Nc4ccncc4)cc3)c(Cc3ccc(F)cc3)cc21`
Ans: < 25%

Q: Continue with `COC[C@H]1CN[C@H](C)CN1CC(=O)N1CC(C)(C)c2ncc(Cc3ccccc3OCCOCCOCCOCCOCCOCCOCCOCCN[C@H](Cc3cccc(F)c3)C(=O)Nc3ccc(-c4ccncc4)cc3)cc21`
Ans: < 25%

Q: Continue with `COC[C@H]1CN[C@H](C)CN1CC(=O)N1CC(C)(C)c2ncc(Cc3cccc(OCCOCCOCCOCCOCCOCCOCCNC[C@@H](C(=O)Nc4ccc5cnccc5c4)c4ccccc4)c3)cc21`
Ans: 25 to 50%

Q: Continue with `C[C@@H]1CN(CC(=O)N2CC(C)(C)c3ncc(Cc4ccc(F)cc4)cc32)[C@@H](CN(C)CCOCCOCCOCCOCCOCCN[C@H](Cc2cccc(F)c2)C(=O)Nc2ccc(-c3ccncc3)cc2)CN1`
Ans: < 25%

Q: Continue with `COC[C@H]1CN[C@H](C)CN1CC(=O)N1CC(C)(C)c2nc(CN(C)CCOCCOCCNC[C@@H](C(=O)Nc3ccc4cnccc4c3)c3ccccc3)c(Cc3ccc(F)cc3)cc21`
Ans: < 25%

Q: Continue with `COC[C@H]1CN[C@H](C)CN1CC(=O)N1CC(C)(C)c2ncc(Cc3ccccc3OCCOCCOCCOCCOCCOCCOCCOCCNC[C@@H](C(=O)Nc3ccc4cnccc4c3)c3ccccc3)cc21`
Ans: 50 to 75%

Q: Continue with `COC[C@H]1CN[C@H](C)CN1CC(=O)N1CC(C)(C)c2ncc(Cc3ccccc3OCCOCCOCCOCCOCCNC[C@@H](C(=O)Nc3ccc4cnccc4c3)c3ccccc3)cc21`
Ans: 50 to 75%

Q: Continue with `COC[C@H]1CN[C@H](C)CN1CC(=O)N1CC(C)(C)c2ncc(Cc3ccccc3OCCOCCNC[C@@H](C(=O)Nc3ccc4cnccc4c3)c3ccccc3)cc21`
Ans: < 25%

Q: Continue with `COC[C@H]1CN[C@H](C)CN1CC(=O)N1CC(C)(C)c2ncc(Cc3cccc(OCCOCCOCCOCCOCCOCCOCCN[C@H](C)c4ccc(C(=O)Nc5ccncc5)cc4)c3)cc21`
Ans: 50 to 75%
